Target: human MCH receptor 1 (MCHR1) (Homo sapiens)
Construct: expressed in transfected cells; host or cells: CHO cell clone 57 (membrane fraction)
Assay: human MCH receptor 1 (MCHR1) competitive binding assay with [125I]-MCH(4-19)
Details: test compound 0.1 μM, human MCHR1-expressing CHO cell membrane fraction, read-out: Binding inhibition rate % (0.1 μM)
property_measured: inhibition at 0.1 µM (%)

Cc1c(C2CC2)nc2ccc(-n3ccc(OCc4csc(C(F)(F)F)c4)cc3=O)cn12 [Example 183] : 91

(1) COc1ccc(COc2ccn(-c3ccc4nc(C5CC5)n(C)c4c3)c(=O)c2)cc1 [Example 77]
(2) Cn1c(C2CC2)nc2ccc(-n3ccc(OCc4csc(C(F)F)n4)cc3=O)cc21 [Example 287]
Input line: When their inhibition at 0.1 µM values are compared, which is larger, 1 or 2 ? Write the label of whichever entry you select.
Output line: 1
(1: 71%, 2: 47%)

----------
Target: human MCH receptor 1 (MCHR1) (Homo sapiens)
Construct: expressed in transfected cells; host or cells: CHO cell clone 57 (membrane fraction)
Test: human MCH receptor 1 (MCHR1) competitive binding assay with [125I]-MCH(4-19)
Conditions: test compound 0.1 μM, human MCHR1-expressing CHO cell membrane fraction, read-out: Binding inhibition rate % (0.1 μM)
property_measured: inhibition at 0.1 µM (%)

Cc1c(C2CC2)nc2ccc(-n3ccc(OCc4ccc(F)cc4)cc3=O)cn12 : 91

(A) Cn1c(C2CC2)nc2ccc(-n3ccc(OCc4nc(C(F)(F)F)cs4)cc3=O)cc21
(B) Cc1c(C2CC2C#N)nc2ccc(-n3ccc(OCc4ccc(Cl)cc4)cc3=O)cn12 (stereo not drawn)
Input line: Which of these two has the smaller recorded inhibition at 0.1 µM: A or B ? Write the label of whichever entry you select.
Output line: B

----------
Molecular target: human MCHR1 (Homo sapiens, UniProt Q99705)
Construct: expressed in transfected cells; host or cells: CHO dhfr- cells, clone #4
Experiment: MCH receptor 1 antagonistic activity, Ca2+ mobilization assay
Type: cell-based
Settings: CHO, test compound 0.1 μM; human MCHR1-expressing CHO cells (clone #4); ligand MCH(4-19) 2 nM; read-out: Inhibitory rate % (0.1 μM)
property_measured: inhibition at 0.1 µM (%)

These solved cases illustrate the format of a correct answer.
CCc1nc2ccc(-n3ccc(OCc4ccc(F)cc4)cc3=O)cc2n1C [Example 63] : 100
Cn1c(CC2CC2)nc2ccc(-n3ccc(OCc4ccc(Cl)cc4)cc3=O)cc21 [Example 91] : 70
Cn1c(C(=O)C2CC2)nc2ccc(-n3ccc(OCc4ccc(F)cc4)cc3=O)cc21 [Example 31] : 61

(1) Cn1c(C2CC2)nc2ccc(-n3ccc(OCc4ccc(Cl)cn4)cc3=O)cc21 [Example 112]
(2) Cc1c(C2CC2)nc2ccc(-n3ccc(OCc4cccs4)cc3=O)cn12 [Example 132]
Input line: Which of these two has the smaller recorded inhibition at 0.1 µM: 1 or 2 ? Write the label of whichever entry you select.
Output line: 1
(1: 48%, 2: 96%)

----------
Target: human MCH receptor 1 (MCHR1) (Homo sapiens)
Construct: expressed in transfected cells; host or cells: CHO cell clone 57 (membrane fraction)
Experiment: human MCH receptor 1 (MCHR1) competitive binding assay with [125I]-MCH(4-19)
Conditions: test compound 0.1 μM, human MCHR1-expressing CHO cell membrane fraction, read-out: Binding inhibition rate % (0.1 μM)
Method: Determination of human MCH receptor 1 (MCHR1) competitive inhibitory activity of test compound using binding assay 1. Preparation of Membrane Fraction […] The MCHR1 ligand binding inhibitory activity of the test compound was determined as follows. An MCHR1-expressing CHO cell membrane fraction (173 μL) diluted with an assay buffer was dispensed to a 96 well polypropylene plate (3363, Corning). […] The binding inhibition rate of the test compound was calculated by the following formula. […]
Counter-ions that a name gives are not always drawn.
property_measured: inhibition at 0.1 µM (%)

These solved cases illustrate the format of a correct answer.
Cn1c([C@@H]2C[C@@H]2C(C)(C)O)nc2ccc(-n3ccc(OCc4ccc(Cl)s4)cc3=O)cc21 (racemic) : 91
CCc1nc2ccc(-n3ccc(OCc4ccc(C(F)(F)F)s4)cc3=O)cc2n1C : 67
CCc1nc2ccc(-n3ccc(OCc4cc(Cl)cs4)cc3=O)cc2n1C : 76
Cc1nc2ccc(-n3ccc(OCc4ccccc4)cc3=O)cn2c1C : 49
Cc1ncoc1-c1nc2ccc(-n3ccc(OCc4ccc(F)cc4)cc3=O)cc2n1C : 73
Cc1c(C2CC2)nc2ccc(-n3ccc(OCc4ccc(F)cn4)cc3=O)cn12 [Example 291, hydrochloride] : 47

(I) Cc1nc2ccc(-n3ccc(OCc4cc(C(F)(F)F)cs4)cc3=O)cc2n1C
(II) Cn1c(C2CC2)nc2ccc(-n3ccc(OCc4csc(F)c4)cc3=O)cc21
Input line: When their inhibition at 0.1 µM values are compared, which is larger, I or II ? Write the label of whichever entry you select.
Output line: II

----------
Biological target: human MCHR1 (Homo sapiens)
Construct: expressed in transfected cells; host or cells: CHO dhfr- cells, clone #4
Experiment: MCH receptor 1 antagonistic activity, Ca2+ mobilization assay
Type: cell-based
Details: CHO, test compound 0.1 μM; human MCHR1-expressing CHO cells (clone #4); ligand MCH(4-19) 2 nM; read-out: Inhibitory rate % (0.1 μM)
property_measured: inhibition at 0.1 µM (%)

These solved cases illustrate the format of a correct answer.
Cn1c(C2CC2)nc2ccc(-n3ccc(OCc4cc(Br)cs4)cc3=O)cc21 [Example 240] : 99
Cn1c(C2CC2)nc2ccc(-n3ccc(OCc4ccc(F)cc4)cc3=O)cc21 [Example 2] : 99
Cn1c(C2CC2)nc2ccc(-n3ccc(OCc4cc(Br)c(F)s4)cc3=O)cc21 [Example 244] : 98
Cn1c(C2CC2)nc2ccc(-n3ccc(COc4ccc(Cl)cc4)cc3=O)cc21 [Example 245] : 58
Cn1c(C2CC2)nc2ccc(-n3ccc(OCc4csc(C(F)F)n4)cc3=O)cc21 [Example 287] : 95

(a) CCc1nc2ccc(-n3ccc(OCc4nc(C(F)(F)F)cs4)cc3=O)cc2n1C [Example 261]
(b) Cc1c(C2CC2)nc2ccc(-n3ccc(NCc4ccc(Cl)s4)cc3=O)cn12 [Example 181]
(c) CC(C)Cc1nc2ccc(-n3ccc(OCc4ccc(Cl)cc4)cc3=O)cc2n1C [Example 37]
Input line: Task for the reader: rank each entry by its inhibition at 0.1 µM, from the minimum upward. List the labels in the requested order.
Output line: b, c, a

----------
Molecular target: human MCH receptor 1 (MCHR1) (Homo sapiens, UniProt Q99705)
Construct: expressed in transfected cells; host or cells: CHO cell clone 57 (membrane fraction)
Sequence (Q99705 whole entry): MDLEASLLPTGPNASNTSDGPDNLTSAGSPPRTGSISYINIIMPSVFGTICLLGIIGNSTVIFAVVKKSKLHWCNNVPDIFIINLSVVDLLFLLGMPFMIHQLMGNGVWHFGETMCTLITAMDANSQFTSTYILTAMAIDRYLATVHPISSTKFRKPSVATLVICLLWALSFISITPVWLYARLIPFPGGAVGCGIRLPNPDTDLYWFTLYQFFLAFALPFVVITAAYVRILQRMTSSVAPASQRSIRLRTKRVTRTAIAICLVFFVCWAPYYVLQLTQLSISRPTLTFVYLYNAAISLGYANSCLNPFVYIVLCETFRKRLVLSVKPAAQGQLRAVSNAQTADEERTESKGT
Experiment: human MCH receptor 1 (MCHR1) competitive binding assay with [125I]-MCH(4-19)
Conditions: test compound 0.1 μM, human MCHR1-expressing CHO cell membrane fraction, read-out: Binding inhibition rate % (0.1 μM)
Counter-ions that a name gives are not always drawn.
property_measured: inhibition at 0.1 µM (%)

These solved cases illustrate the format of a correct answer.
Cc1c(C2CC2)nc2ccc(-n3ccc(OCc4ccccn4)cc3=O)cn12 [Example 263, hydrochloride] : 30
Cn1c(C2CC2)nc2ccc(-n3ccc(OCc4nc(CF)cs4)cc3=O)cc21 : 58
Cn1c([C@@H]2C[C@@H]2C(C)(C)O)nc2ccc(-n3ccc(OCc4ccc(Cl)cc4)cc3=O)cc21 (racemic) : 91
Cn1c([C@@H]2C[C@@H]2C(C)(C)O)nc2ccc(-n3ccc(OCc4ccc(Cl)c(F)c4)cc3=O)cc21 (racemic) : 81
Cc1c(C2CC2)nc2ccc(-n3ccc(OCc4ccc(C(F)(F)F)o4)cc3=O)cn12 : 64
Cc1c(C2CC2)nc2ccc(-n3ccc(OCc4cc(Cl)cs4)cc3=O)cn12 : 84

(a) Cn1c([C@@H]2CC[C@@H]2C(C)(C)O)nc2ccc(-n3ccc(OCc4ccc(Cl)cc4)cc3=O)cc21 (racemic)
(b) Cc1c(C2CC2)nc2ccc(-n3ccc(NCc4ccc(Cl)cc4)cc3=O)cn12
Input line: When their inhibition at 0.1 µM values are compared, which is larger, a or b ? Write the label of whichever entry you select.
Output line: a

(P) Cn1c(C2CC2)nc2ccc(-n3ccc(OCc4ccccc4)cc3=O)cc21
(Q) Cn1c(C2CC2)nc2ccc(-n3ccc(OCc4csc(C(F)(F)F)n4)cc3=O)cc21
Input line: When their inhibition at 0.1 µM values are compared, which is larger, P or Q ? Write the label of whichever entry you select.
Output line: P

(A) Cn1c(C2CC2)nc2ccc(-n3ccc(OCc4ccc(Cl)cn4)cc3=O)cc21
(B) CCc1nc2ccc(-n3ccc(OCc4nc(C(F)F)cs4)cc3=O)cc2n1C
Input line: Which of these two has the smaller recorded inhibition at 0.1 µM: A or B ? Write the label of whichever entry you select.
Output line: B
(B: 37%, A: 70%)

From: patent US9365540B2
